Reference source: patent US20240043507A1

Listed next: entries and their corresponding IC50 (FRNT neutralisation).
- system_under_test: spike protein of SARS-CoV-2 strain Victoria (SARS-CoV-2/human/AUS/VIC01/2020) (SARS-CoV-2, UniProt P0DTC2 14-1273)
- assay_text: cell-based or functional assay
Write the answer as a number in µg/mL, unit excluded.

>  <binder>
antibody 88 (antibody, V domains shown, also called mAb 88) VH: QLQLQESGPGLVKPSQTLSLTCTVSGGSISSGSYNWTWIRQPAGKGLEWIGRIYNSGSTNYNPSLKSRVTISVDTSKNQLSLKVRSVTAADTAVYYCARHCSGGTCYPKYYYGMDVWGQGTTVTVSS VL: QSALTQPPSVSEAPRQRVTISCSGSSSNIGNNAVNWYQQFPGKAPKLLIYYDDLLPSGVSDRFSGSKSGTSASLAISGVQSEDEADYYCAAWDDSLNVVVFGGGTKLTVL

>  <IC50 (FRNT neutralisation) (µg/mL)>
0.033

$$$$
>  <binder>
antibody 150 (antibody, V domains shown) VH: QVQLVESGGGLIQPGGSLRLSCAASGVTVSSNYMSWVRQAPGKGLEWVSIIYSGGTTYYADSVKGRFTISRDSSMNTLYLQMNSLRAEDTAVYYCARDLMVYGIDVWGQGTTVTVSS VL: EIVMTQSPSSLSASVGDRVTITCRASQGISSYLAWYQQKPGKAPKLLIYAASTLQSGVPSRFSGSGSGTDFTLTISSLQPEDFATYYCQQLDSYPPGYTFGQGTKVDIK

>  <IC50 (FRNT neutralisation) (µg/mL)>
0.012

$$$$
>  <binder>
antibody 170 (antibody, V domains shown) VH: QVQLVESGAEVKKPGESLKISCKGSGYSFTSYWIVWVRQMPGKGLEWMGIIYPGDSDTKYSPSFQGQVSISADKPISTAYLQWSRLKASDTAMYYCARLGNWLVDYWGQGTLVTVSS VL: DIVMTQSPLSLSVTPGQPASISCKSSQSLLHSDGKTYLYWYLQKPGQPPQLLMYEVSNRFSGVPDRFSGSGSGTDFTLKISRVESEDVGVYYCMQSIQLPRGITFGQGTRLEIK

>  <IC50 (FRNT neutralisation) (µg/mL)>
0.025

$$$$

Task: Using the record for antibody 58 (antibody, V domains shown, also called mAb 58) VH: QVQLVESGGGLVQPGRSLRLSCAASGFTFDDYAMHWVRQPPGKGLEWVSGVSWNSGTIGYADSVKGRFIISRDNAKNSLYLQMNSLKAEDTALYYCAREVGGTFGVLISREGGLDYWGQGTLVTVSS VL: SYELTQPPSVSVAPGQTARITCGGNTIGSKSVHWYQQRPGQAPVLVVYDDSDRPSGIPERFSGSNSGNTATLTISRVEAGDEADYYCQVWDSSSDRVVFGGGTKLTVL , report its IC50 (FRNT neutralisation).
Result: 0.041

Task: And then antibody 318 (antibody, V domains shown, also called mAb 318) VH: QVQLVQSGPEVKKPGTSVKVSCKASGFTLTSSAMQWVRQARGQRLEWIGWIVVGSGNTNYAQKFQERVTITRDMSTSTAYMELSSLRSEDTAVYYCAAGRGYNSDFDYWGQGTLVTVSS VL: AIRMTQSPGTLSLSPGERATLSCRASQSVSSSYLAWYQQRPGQAPRLLIYGTSSRATGIPDRFSGSGSGTDFTLTISRLEPEDFAVYYCQQYGYSVYTFGQGTKVDIK , what is it?
Result: 0.029
